Exercise: state measured GI50 for each of the compounds provided.
system: SF-295; experiment: NCI tumour cell line growth inhibition, 48 h
Calls of active or inactive are those of the source. No stated cut-off is given here; in the data, active = GI50 up to about 1.1 µM and inactive = higher.

- compound: "CC1=CC(=O)C(=C(C)C)CC1"
  GI50: "> 100 µM (inactive)"
- compound: "O=C1O/C(=C\\C=C\\CO)C=C1/C=C/CO [LISSOCLINOLIDE]"
  GI50: "39 µM (inactive)"
- compound: "O=C1C=CC[C@H](/C=C/C[C@@H](O)C[C@H](O)/C=C/c2ccccc2)O1"
  GI50: "15.7 µM (inactive)"

Could you tell me GI50 for each of these compounds? They are listed below.
1. COC(=O)c1ccccc1CC1Cc2ccc3c(c2C1=O)CCC3 (stereo unspecified)
2. O=C1c2ccc3cc(CCl)cc(O)c3c2C(=O)c2cccc(O)c21

["57.1 µM (inactive)", "> 10 µM (inactive)"]

List reported GI50 for each of these compounds:
1. CN1CCOC1(C)CO (stereo unspecified)
2. Cn1c(=O)c2c(nc3n2C(CCl)CO3)n(C)c1=O (stereo unspecified)
3. CC(C)[Si]1(C(C)C)OCC2OC(N3C(=O)NC(=O)C[C@@H]3C(O)c3ccccc3)CC2O[Si](C(C)C)(C(C)C)O1 (stereo partly specified)
4. O=c1n(C2CCCCC2)c(=C(Cl)Cl)c(=C(Cl)Cl)n1C1CCCCC1
5. CN(C)C(=O)OC(Cn1cncn1)c1ccc(Cl)cc1Cl (stereo unspecified)

1. > 100 µM (inactive)
2. > 100 µM (inactive)
3. 4.51 µM (inactive)
4. > 100 µM (inactive)
5. > 100 µM (inactive)

// for each compound below, give its GI50
1. O=C1C(Cl)C(c2ccc(O)cc2)N1n1cnc2ccccc2c1=O (stereo unspecified)
2. COc1ccc2c(c1OC)C(=O)C2
3. CC(C)Oc1c(-c2c(OC(C)C)c(=O)c2=O)c(=O)c1=O
4. CC[n+]1c(-c2ccccc2)c2cc(N)ccc2c2ccc(N)cc21
5. COc1cc(C2S/C(=C/c3ccccc3)C(=O)N2c2cccc([N+](=O)[O-])c2)cc(OC)c1OC (stereo unspecified)
6. COC(OC)(c1ccccc1)C(Br)Br

98.4 µM (inactive)
> 100 µM (inactive)
> 65 µM (inactive)
3 µM (inactive)
50.1 µM (inactive)
> 100 µM (inactive)

---

tested on: SK-OV-3; experiment: NCI tumour cell line growth inhibition, 48 h
Activity calls are given as the source filed them. Rule as the data show it: active = GI50 up to about 1.1 µM and inactive = higher.
Give your call using only these classes: active, inactive

Previously resolved entries follow.
- compound: "C/C(=N\\NS(=O)(=O)c1ccc([N+](=O)[O-])cc1)c1ccc[n+]([O-])n1"
  group-label: "inactive"
- compound: "O=C1C(c2ccccc2)=C(c2ccccc2)C(c2ccc(-c3ccc(C4=C(c5ccccc5)C(=O)C(c5ccccc5)=C4c4ccccc4)cc3)cc2)=C1c1ccccc1"
  group-label: "inactive"
- compound: "CN(CCCCCl)P(=O)(OCc1ccc([N+](=O)[O-])o1)OC[C@H]1O[C@@H](n2cc(F)c(=O)[nH]c2=O)C[C@@H]1O (some centres undefined)"
  group-label: "active"

Dear all, I need the recorded test outcome for OCC(O)C(O)C(C=NNc1ncnc2ccc(Br)cc12)=NNc1ncnc2ccc(Br)cc12 (centres undefined) , thank you.
inactive

How was CC(NC(=O)C(N)CC(=O)O)NC(=O)C1CCC1 (centres undefined) classified in this test?
inactive

Hi team, can someone confirm the assay call for O=[N+]([O-])c1ccc(C2CC(c3ccc(NCc4nc5ccccc5[nH]4)cc3)=NO2)cc1 (centres undefined) ?
inactive

Outcome logged for "CCC[N+](C)(C)CCCNC(=O)c1c(O)c2ccccc2[nH]c1=O" in this assay:
inactive

Assay outcome for "Cc1ccc(NC(=O)CC(=O)n2nc(C)c(/N=N/c3cccc(C)c3)c2C)cc1" : what was it?
inactive

Dear colleague, could you share the recorded outcome for "O=c1ccc2ccccc2c2ccccc12" when you have a moment?
inactive

# outcome recorded in this test, key = CCCC1(CC(=O)O)OCCc2c1[nH]c1ccccc21 (centres undefined) [PRODOLIC ACID]
inactive

Would you mind telling me which call this test gave "CCOC(=O)/N=C(\N)SCc1ccccc1" ?
inactive

// outcome(item) with item = "COc1ccc(/C=C/c2cc(OC)c(O[Si](C)(C)C(C)(C)C)c(OC)c2)cc1"
inactive

Which outcome was entered for the compound Cc1nn(C(=O)Cc2ccccc2)c2c1C(c1ccc3ccccc3c1O)SC(=N)N2 (centres undefined) in this test?
inactive

Look up the recorded call for "Oc1ccc(N=C2CCC(=C(c3ccccc3)c3ccc(Nc4ccc(O)cc4)cc3)CC2)cc1" in this test.
inactive

Record request — test call for Cn1/c(=N\N=C2\C=C3CCCCC3(C)CC2)sc2ccccc21 (centres undefined)
inactive

Recorded test outcome, item Cc1ccc(/C=C2\CN(C)CC3C2=NC(=S)NC3c2ccc(C)cc2)cc1 (centres undefined)
inactive

What outcome does the record of this test show for "CC(C)Oc1c(-c2c(OC(C)C)c(=O)c2=O)c(=O)c1=O" ?
inactive

Just curious, what result did "CCOC(=O)[C@@]12C[C@](/C=C/OC)(O[Si](C)(C)C)[C@@]13c1cc(OC)c(OC)cc1CCN3C(=O)C2=O" get here?
inactive

How did this test come out for O=C1CS(=O)(=O)C(c2cccc(Oc3ccccc3)c2)N1c1ccccc1 (centres undefined) ?
inactive

---

system: MDA-MB-231; test: NCI tumour cell line growth inhibition, 48 h
The source made the active and inactive calls. Cut-off read from the data, not from the text of the source: active = GI50 up to about 1.1 µM and inactive = higher.
measured-metric: GI50

These solved cases illustrate the format of a correct answer.
- line-notation: "CC(=O)C(=C(I)I)c1ccccc1"
  measured-target: "MDA-MB-231"
  GI50: "22.3 µM (inactive)"
- line-notation: "ON[C@H]1C[C@@H](n2cnc3c(NC4CC4)ncnc32)[C@H](O)[C@@H]1O"
  measured-target: "MDA-MB-231"
  GI50: "> 100 µM (inactive)"
- line-notation: "O=C(/C=C(\\Nc1ccccc1O)c1ccccc1)C(=O)NC12CC3CC(CC(C3)C1)C2"
  measured-target: "MDA-MB-231"
  GI50: "> 10 µM (inactive)"
- line-notation: "COc1ccc(OC)c(CCc2cc(OC)ccc2OC)c1"
  measured-target: "MDA-MB-231"
  GI50: "3.66 µM (inactive)"

State the recorded GI50 for every item in the following list.
1. Cc1nc(C)c(C(=O)NNC(=O)c2ccccc2)cc1C(=O)NNC(=O)c1ccccc1
2. CCOC(=O)/C=C(\C)Sc1cc(O)c2ccccc2c1O

["> 100 µM (inactive)", "16.4 µM (inactive)"]

---

Could you please report measured GI50 for the items listed next?
test system: MOLT-4; experiment: NCI tumour cell line growth inhibition, 48 h
The source made the active and inactive calls. Cut-off read from the data, not from the text of the source: active = GI50 up to about 1.1 µM and inactive = higher.

// worked examples, GI50 included
- line-notation: "O=C1c2ccccc2-c2nnc(-c3ccc(Cl)cc3)cc21"
  GI50: "> 10 µM (inactive)"
- line-notation: "Cc1nc(-c2cc3c(ccc4ccccc43)oc2=O)cc2c1c(=O)oc1ccc3ccccc3c12"
  GI50: "> 100 µM (inactive)"

Next compound, please.
Param item = "CC(C)(C)c1ccc2c(c1)OCc1n[nH]c(n1)COc1cc(C(C)(C)C)ccc1OCCOCCO2" ; retrieve measured GI50.
3.67 µM (inactive)

---

system: OVCAR-3; assay: NCI tumour cell line growth inhibition, 48 h
Calls of active or inactive are those of the source. Cut-off read from the data, not from the text of the source: active = GI50 up to about 1.1 µM and inactive = higher.
API: response.call in active, inactive

Example results:
- compound: "NCCC1CN(C(=O)OCc2ccccc2)c2ccccc21 (stereo not drawn)"
  group-label: "inactive"
- compound: "CCC1=C(C[C@H]2NCCc3cc(OC)c(OC)cc32)C[C@H]2c3cc(OC)c(OC)cc3CCN2C1"
  group-label: "active"
- compound: "OC/C=C/[C@H](OCc1ccccc1)[C@H](/C=C/CO)OCc1ccccc1"
  group-label: "inactive"
- compound: "c1cc2nnc1SCCSCCSCCSc1ccc(nn1)SCCSCCSCCS2"
  group-label: "inactive"

Could you check what this test reported for CC1(c2nc3cc(Cl)c(Cl)cc3[nH]2)CCC(CO)C(C)(C)O1 (stereo not drawn) ?
inactive

Could you please tell me the result logged for Cn1/c(=N\N=C2\C=C3CCCCC3(C)CC2)sc2ccccc21 (stereo not drawn) in this assay?
inactive

# lookup: test call for "O=S(=O)(SC1=NCCN1)c1cccc2ccccc12"
inactive

# lookup: test call for OCC1OC(NCCNCCNC2OC(CO)C(O)C(O)C2O)C(O)C(O)C1O (stereo not drawn)
inactive

# fetch the recorded call for "O=C(O)c1cnc2cc(OCc3ccccc3)ccc2c1O" here
inactive

How did this test come out for O=C(OCc1ccccc1)C(Cc1ccc(OCc2ccccc2)cn1)NC(=O)C(F)(F)F (stereo not drawn) ?
inactive

Dear colleague, could you share the recorded outcome for "NS(=O)(=O)c1ccc(NNc2c3ccccc3nc3c(C(=O)Nc4ccc(S(=O)(=O)Nc5ncccn5)cc4)cccc23)cc1" when you have a moment?
inactive

Called result for "Cn1c(SCc2c[nH]c3ccccc23)nnc1-c1ccc(Cl)cc1Cl"
inactive

Recorded test outcome, item CCOC(=O)C1=C(O)C2C3CC4C2C(O)=C(C(=O)OCC)C2C1C3C42 (stereo not drawn)
inactive
